study target: T1, recombinant human IL-6 (human, UniProt P05231 30-212)
T1 construct: Flowed in solution over the captured antibodies
T1 sequence (P05231 30-212 limits assumed): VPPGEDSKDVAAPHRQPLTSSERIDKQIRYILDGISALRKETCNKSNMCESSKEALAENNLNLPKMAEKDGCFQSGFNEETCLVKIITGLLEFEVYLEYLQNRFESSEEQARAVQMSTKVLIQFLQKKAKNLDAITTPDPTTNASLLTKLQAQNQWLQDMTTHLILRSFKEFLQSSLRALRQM
experiment notes: SPR (Biacore), purified IgG on Protein A, 37 C
# koff per entry
# number only, unit s⁻¹ dropped from output

Use these answered entries as a reference point.
Value of koff reported for the binder anti-IL-6 antibody, heavy chain I108S, light chain WT (antibody, IgG1, V domains shown, Full IgG1 tested; V domains derived as in m2) VH: EVQLVESGGGLVQPGGSLRLSCAASGFTFSPFAMSWVRQAPGKGLEWVAKISPGGSWTYYSDTVTGRFTFSLDTSKSTAYLQMNSLRAEDTAVYYCARQLWGYYALDSWGQGTLVTVSS VL: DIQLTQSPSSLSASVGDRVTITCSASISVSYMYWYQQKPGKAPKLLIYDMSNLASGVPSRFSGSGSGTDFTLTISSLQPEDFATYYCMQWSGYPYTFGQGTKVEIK is 0.000336

Value of koff reported for the binder anti-IL-6 antibody, heavy chain L100Q, light chain WT (antibody, IgG1, V domains shown, Full IgG1 tested; V domains derived as in m2) VH: EVQLVESGGGLVQPGGSLRLSCAASGFTFSPFAMSWVRQAPGKGLEWVAKISPGGSWTYYSDTVTGRFTFSLDTSKSTAYLQMNSLRAEDTAVYYCARQQWGYYALDIWGQGTLVTVSS VL: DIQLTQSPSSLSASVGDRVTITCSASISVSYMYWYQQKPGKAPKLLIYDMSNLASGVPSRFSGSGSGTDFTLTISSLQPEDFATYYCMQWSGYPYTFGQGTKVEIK is 0.00041

Value of koff reported for the binder anti-IL-6 antibody, heavy chain I51R, light chain WT (antibody, IgG1, V domains shown, Full IgG1 tested; V domains derived as in m2) VH: EVQLVESGGGLVQPGGSLRLSCAASGFTFSPFAMSWVRQAPGKGLEWVAKRSPGGSWTYYSDTVTGRFTFSLDTSKSTAYLQMNSLRAEDTAVYYCARQLWGYYALDIWGQGTLVTVSS VL: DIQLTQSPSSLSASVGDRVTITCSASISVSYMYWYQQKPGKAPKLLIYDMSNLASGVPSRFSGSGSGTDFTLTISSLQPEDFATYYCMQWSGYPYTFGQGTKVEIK is 0.000343

Value of koff reported for the binder anti-IL-6 antibody, parent sequence (heavy chain WT, light chain WT) (antibody, V domains shown, Tested as full antibody from Expi293 cells in an engineered human IgG1 framework (L234A, L235A, G237A, L443C, EU); also called wild-type; parent molecule) VH: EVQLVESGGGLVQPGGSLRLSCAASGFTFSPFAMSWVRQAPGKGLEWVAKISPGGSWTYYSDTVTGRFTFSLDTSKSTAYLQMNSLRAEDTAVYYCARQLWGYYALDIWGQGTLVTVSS VL: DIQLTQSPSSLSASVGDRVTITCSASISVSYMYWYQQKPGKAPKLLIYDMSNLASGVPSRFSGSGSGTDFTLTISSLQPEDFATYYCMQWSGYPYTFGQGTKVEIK is 0.000139

Value of koff reported for the binder anti-IL-6 antibody, heavy chain W57F, light chain WT (antibody, IgG1, V domains shown, Full IgG1 tested; V domains derived as in m2) VH: EVQLVESGGGLVQPGGSLRLSCAASGFTFSPFAMSWVRQAPGKGLEWVAKISPGGSFTYYSDTVTGRFTFSLDTSKSTAYLQMNSLRAEDTAVYYCARQLWGYYALDIWGQGTLVTVSS VL: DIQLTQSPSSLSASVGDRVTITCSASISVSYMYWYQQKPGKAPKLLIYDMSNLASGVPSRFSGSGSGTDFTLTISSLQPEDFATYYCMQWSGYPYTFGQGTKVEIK is 0.000453

Value of koff reported for the binder anti-IL-6 antibody, heavy chain D107E, light chain WT (antibody, IgG1, V domains shown, Full IgG1 tested; V domains derived as in m2) VH: EVQLVESGGGLVQPGGSLRLSCAASGFTFSPFAMSWVRQAPGKGLEWVAKISPGGSWTYYSDTVTGRFTFSLDTSKSTAYLQMNSLRAEDTAVYYCARQLWGYYALEIWGQGTLVTVSS VL: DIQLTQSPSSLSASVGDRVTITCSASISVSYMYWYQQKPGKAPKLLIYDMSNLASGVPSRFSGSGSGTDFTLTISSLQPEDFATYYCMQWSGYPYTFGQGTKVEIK is 0.000402

Further cases:
Value of koff reported for the binder anti-IL-6 antibody, heavy chain I108E, light chain WT (antibody, IgG1, V domains shown, Full IgG1 tested; V domains derived as in m2) VH: EVQLVESGGGLVQPGGSLRLSCAASGFTFSPFAMSWVRQAPGKGLEWVAKISPGGSWTYYSDTVTGRFTFSLDTSKSTAYLQMNSLRAEDTAVYYCARQLWGYYALDEWGQGTLVTVSS VL: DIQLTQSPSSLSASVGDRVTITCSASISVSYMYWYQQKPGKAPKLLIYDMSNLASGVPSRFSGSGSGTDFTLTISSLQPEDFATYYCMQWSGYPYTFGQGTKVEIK is 0.000372

Value of koff reported for the binder anti-IL-6 antibody, heavy chain I108F, light chain WT (antibody, IgG1, V domains shown, Full IgG1 tested; V domains derived as in m2) VH: EVQLVESGGGLVQPGGSLRLSCAASGFTFSPFAMSWVRQAPGKGLEWVAKISPGGSWTYYSDTVTGRFTFSLDTSKSTAYLQMNSLRAEDTAVYYCARQLWGYYALDFWGQGTLVTVSS VL: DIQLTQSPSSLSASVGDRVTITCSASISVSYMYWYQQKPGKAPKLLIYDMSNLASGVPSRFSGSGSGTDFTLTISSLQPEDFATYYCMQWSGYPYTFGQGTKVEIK is 0.000401

Value of koff reported for the binder anti-IL-6 antibody, heavy chain WT, light chain I27W (antibody, IgG1, V domains shown, Full IgG1 tested; V domains derived as in m2) VH: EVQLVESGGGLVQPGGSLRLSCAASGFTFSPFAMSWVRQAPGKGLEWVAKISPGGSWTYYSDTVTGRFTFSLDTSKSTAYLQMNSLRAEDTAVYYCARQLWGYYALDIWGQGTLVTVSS VL: DIQLTQSPSSLSASVGDRVTITCSASWSVSYMYWYQQKPGKAPKLLIYDMSNLASGVPSRFSGSGSGTDFTLTISSLQPEDFATYYCMQWSGYPYTFGQGTKVEIK is 0.000764

Value of koff reported for the binder anti-IL-6 antibody, heavy chain F29H, light chain WT (antibody, IgG1, V domains shown, Full IgG1 tested; V domains derived as in m2) VH: EVQLVESGGGLVQPGGSLRLSCAASGFTHSPFAMSWVRQAPGKGLEWVAKISPGGSWTYYSDTVTGRFTFSLDTSKSTAYLQMNSLRAEDTAVYYCARQLWGYYALDIWGQGTLVTVSS VL: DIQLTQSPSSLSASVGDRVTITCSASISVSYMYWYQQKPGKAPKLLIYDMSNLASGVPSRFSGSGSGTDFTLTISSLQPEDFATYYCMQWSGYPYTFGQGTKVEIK is 0.000397
